- target_system: Human factor Xa (Homo sapiens, UniProt P00742)
- Construct: leads from XII to XIIa to XIa to IXa and to the conversion of X to Xa; purchased Enzyme Research Laboratories, South Bend IN
- Sequence (P00742 235-488 limits assumed): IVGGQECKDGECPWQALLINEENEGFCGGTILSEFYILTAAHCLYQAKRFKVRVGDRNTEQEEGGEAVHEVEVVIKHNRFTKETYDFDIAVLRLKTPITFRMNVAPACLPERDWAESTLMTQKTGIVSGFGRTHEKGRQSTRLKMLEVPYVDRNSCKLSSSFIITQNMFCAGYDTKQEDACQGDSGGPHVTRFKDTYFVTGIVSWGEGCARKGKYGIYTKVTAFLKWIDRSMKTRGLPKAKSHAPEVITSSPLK
- Sequence (P00742 41-179 limits assumed): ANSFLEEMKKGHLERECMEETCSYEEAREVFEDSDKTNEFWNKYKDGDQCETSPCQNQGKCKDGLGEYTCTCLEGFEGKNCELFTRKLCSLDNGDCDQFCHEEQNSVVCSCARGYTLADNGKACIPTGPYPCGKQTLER
- test_details: Xa Assay
- Format: biochemical
- conditions: % inhibition at 30 µM (cells with % or %@30, bare 0)
Each entry below carries its recorded IC50 or % Inhibition Factor Xa (30 µM).
Dear colleague, please return just the value in %, with no unit written.

Below: 3 molecules and their reported IC50 or % Inhibition Factor Xa (30 µM).
{"columns": ["molecule", "target_system", "attribute_measured", "endpoint_unit", "test_result"],
 "data": [
  ["CC(C)Nc1nc(Cl)c(-c2cccc(N)c2)n(CC(=O)NCCc2ccc(C(=N)N)cc2)c1=O", "Human factor Xa (Homo sapiens, UniProt P00742)", "IC50 or % Inhibition Factor Xa (30 µM)", "%", 10],
  ["N=C(N)c1ccc(CNC(=O)Cn2c(-c3ccc4c(c3)OCO4)c(Cl)nc(NCCc3cccnc3)c2=O)cc1", "Human factor Xa (Homo sapiens, UniProt P00742)", "IC50 or % Inhibition Factor Xa (30 µM)", "%", 17],
  ["CCCCC(CC)Nc1nc(Cl)c(-c2ccccc2)n(CC(=O)NCc2ccc(C(=N)N)cc2)c1=O (stereo not shown)", "Human factor Xa (Homo sapiens, UniProt P00742)", "IC50 or % Inhibition Factor Xa (30 µM)", "%", 5]
]}

Note: attention shifts to another entry.
Sample N=C(N)c1ccc(CNC(=O)Cn2c(-c3ccccc3)c(Cl)nc(NC3CCc4ccccc43)c2=O)cc1 (stereo not shown) , system: Human factor Xa (Homo sapiens, UniProt P00742). Its IC50 or % Inhibition Factor Xa (30 µM) is 9

* * *

- target_system: Human factor Xa (Homo sapiens)
- Construct: leads from XII to XIIa to XIa to IXa and to the conversion of X to Xa; purchased Enzyme Research Laboratories, South Bend IN
- test_details: Xa Assay
- Format: biochemical
- conditions: % inhibition at 30 µM (cells with % or %@30, bare 0)
attribute_measured: IC50 or % Inhibition Factor Xa (30 µM) (%)
Provide only the numeric value, understood in %.

{"columns": ["chem_smiles", "IC50 or % Inhibition Factor Xa (30 µM) (%)"],
 "data": [
  ["N=C(N)c1ccc(CNC(=O)Cn2c(-c3cccc(Cl)c3)c(Cl)nc(NCCN3CCOCC3)c2=O)cc1", 8]
]}

// IC50 or % Inhibition Factor Xa (30 µM) lookup, compound = "N=C(N)c1ccc(CNC(=O)Cn2c(-c3ccccc3)c(Cl)nc(NCCc3ccc(Cl)c(Cl)c3)c2=O)cc1" , result: 9

Record "C[C@@H](C(=O)NCc1ccc(C(=N)N)cc1)n1c(-c2ccccc2)c(Cl)nc(NCc2ccccc2)c1=O" . Reported IC50 or % Inhibition Factor Xa (30 µM): 0

// "N=C(N)c1ccc(CNC(=O)Cn2c(-c3cccc(N)c3)c(Cl)nc(NC3CCC3)c2=O)cc1F" : IC50 or % Inhibition Factor Xa (30 µM) value = 0

* * *

- target_system: Human factor Xa (Homo sapiens, UniProt P00742)
- Construct: leads from XII to XIIa to XIa to IXa and to the conversion of X to Xa; purchased Enzyme Research Laboratories, South Bend IN
- test_details: Xa Assay
- Assay type: biochemical
- conditions: % inhibition at 30 µM (cells with % or %@30, bare 0)
Mark Criterion met only when IC50 or % Inhibition Factor Xa (30 µM) stays strictly below 7%. Values equal to the cut-off are Criterion not met.

{"columns": ["molecule", "assigned_category"],
 "data": [
  ["N=C(N)NCC#CCNC(=O)Cn1c(-c2ccccc2)cnc(NCCc2ccccc2)c1=O", "Criterion met"],
  ["CC(C)Nc1nc(Cl)c(-c2cccnc2)n(CC(=O)NCc2ccc(C(=N)N)cc2)c1=O", "Criterion not met"],
  ["N=C(N)c1ccc(CNC(=O)Cn2c(-c3ccccc3)c(Cl)nc(NCCCN3CCCC3=O)c2=O)cc1", "Criterion met"],
  ["C[C@@H](C(=O)NCc1ccc(C(=N)N)cc1)n1c(-c2ccccc2)c(Cl)nc(NC2CCC2)c1=O", "Criterion met"],
  ["N=C(N)c1ccc(CNC(=O)Cn2c(-c3ccccc3)c(Cl)nc(NCCCc3ccccc3)c2=O)cc1", "Criterion met"],
  ["Cc1c(Cl)nc(NCc2ccccc2)c(=O)n1CC(=O)NCc1ccc(C(=N)N)cc1", "Criterion not met"],
  ["CN(C)CCNc1nc(Cl)c(-c2ccccc2)n(CC(=O)NCc2ccc(C(=N)N)cc2)c1=O", "Criterion met"],
  ["CCOc1ccccc1CNc1nc(Cl)c(-c2ccccc2)n(CC(=O)NCc2ccc(C(=N)N)cc2)c1=O", "Criterion met"]
]}

Q: Find out if reported IC50 or % Inhibition Factor Xa (30 µM) for "N=C(N)c1ccc(CNC(=O)Cn2c(-c3ccc(Cl)cc3)c(Cl)nc(NCCN3CCOCC3)c2=O)cc1" is less than 7%
Result: Criterion not met

Q: # strict comparison: is reported IC50 or % Inhibition Factor Xa (30 µM) < 7%? input = "N=C(N)c1ccc(CNC(=O)Cn2c(-c3ccc(-c4ccccc4)cc3)c(Cl)nc(NCCc3cccc(Cl)c3)c2=O)cc1"
Result: Criterion not met

Q: Please state whether IC50 or % Inhibition Factor Xa (30 µM) is below 7% for "N=C(N)c1ccc(CNC(=O)Cn2c(-c3ccccc3)c(Cl)nc(NCc3cc(F)cc(C(F)(F)F)c3)c2=O)cc1"
Result: Criterion met

Q: Identify whether the molecule CSCC(C(=O)NCc1ccc(C(=N)N)cc1)n1c(-c2ccccc2)c(Cl)nc(NCc2ccccc2)c1=O (stereo not shown) records IC50 or % Inhibition Factor Xa (30 µM) below 7%.
Result: Criterion met

Q: hey, is IC50 or % Inhibition Factor Xa (30 µM) for "CC(C)Nc1nc(Cl)c(-c2cccc(C(=O)O)c2)n(CC(=O)NCc2ccc(C(=N)N)cc2)c1=O" lower than 7% or not?
Result: Criterion not met

Q: In the record for "N=C(N)c1ccc(CNC(=O)Cn2c(-c3ccsc3)c(Cl)nc(NCCc3cccc(Cl)c3)c2=O)cc1" , is IC50 or % Inhibition Factor Xa (30 µM) less than 7%?
Result: Criterion met

Q: Problem: For the molecule N=C(N)c1ccc(CNC(=O)Cn2c(-c3ccccc3)c(Cl)nc(NC3CCS(=O)(=O)C3)c2=O)cc1 (stereo not shown) [1512-19] , is IC50 or % Inhibition Factor Xa (30 µM) under 7%?
Result: Criterion met

Q: Lab note: IC50 or % Inhibition Factor Xa (30 µM) threshold 7%. Does this molecule come in strictly under it? N=C(N)c1ccc(CNC(=O)C(Cc2ccccc2)n2c(-c3ccccc3)c(Cl)nc(NCCc3ccccc3)c2=O)cc1 (stereo not shown)
Result: Criterion met

* * *

- target_system: TF-VIIa (Homo sapiens, UniProt P08709)
- Construct: An extrinsic pathway is initiated by the conversion of coagulation factor VII to VIIa by Xa; purchased American Diagnostica, Greenwich CT; Soluble TF was made in house in E. coli
- Sequence (P08709 213-466 limits assumed): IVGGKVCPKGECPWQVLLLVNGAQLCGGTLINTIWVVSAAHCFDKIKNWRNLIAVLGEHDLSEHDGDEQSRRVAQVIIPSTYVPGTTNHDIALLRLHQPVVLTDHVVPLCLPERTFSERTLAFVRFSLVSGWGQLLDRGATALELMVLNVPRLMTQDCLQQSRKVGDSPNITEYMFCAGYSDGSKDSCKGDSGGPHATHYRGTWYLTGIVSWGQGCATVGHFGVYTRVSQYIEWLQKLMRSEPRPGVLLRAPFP
- Sequence (P08709 61-212 limits assumed): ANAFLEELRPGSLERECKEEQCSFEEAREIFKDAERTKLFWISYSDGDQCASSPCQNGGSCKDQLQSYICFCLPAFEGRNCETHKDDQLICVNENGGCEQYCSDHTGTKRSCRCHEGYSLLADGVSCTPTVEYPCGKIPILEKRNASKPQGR
- Sequence (P13726 33-251 partner limits assumed): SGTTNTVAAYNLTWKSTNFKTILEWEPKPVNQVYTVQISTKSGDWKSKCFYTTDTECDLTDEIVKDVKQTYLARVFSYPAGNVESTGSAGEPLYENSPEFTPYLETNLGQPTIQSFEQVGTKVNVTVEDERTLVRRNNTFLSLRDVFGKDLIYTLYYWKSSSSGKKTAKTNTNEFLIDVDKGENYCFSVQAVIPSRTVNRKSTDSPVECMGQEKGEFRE
- test_details: TF-VIIa Assay
- Assay type: biochemical
- conditions: % inhibition at 30 µM (cells with % or %@30, bare 0)
Each item that follows carries a reported IC50 or % Inhibition TF-VIIa (30 µM).
# value in %; strip the unit string

Please review the following examples before continuing.
{"columns": ["molecule", "endpoint_unit", "IC50 or % Inhibition TF-VIIa (30 µM)"],
 "data": [
  ["COc1ccc(-c2c(Cl)nc(NCc3ccncc3)c(=O)n2CC(=O)NCc2ccc(C(=N)N)cc2)cc1", "%", 37],
  ["N=C(N)c1ccc(CNC(=O)C(Cc2ccccc2)n2c(-c3ccccc3)c(Cl)nc(NCCc3cccc(Cl)c3)c2=O)cc1 (stereo not drawn)", "%", 22],
  ["CCc1c(Cl)nc(NCCc2cccc(Cl)c2)c(=O)n1CC(=O)NCc1ccc(C(=N)N)cc1", "%", 4]
]}

Observed IC50 or % Inhibition TF-VIIa (30 µM) on TF-VIIa (Homo sapiens, UniProt P08709), entry "N=C(N)c1ccc(CNC(=O)Cn2c(-c3ccccc3)c(Cl)nc(NCc3c(F)cccc3C(F)(F)F)c2=O)cc1" , equals 43

Lab note: molecule N=C(N)c1ccc(CNC(=O)C(Cc2ccccc2)n2c(-c3ccccc3)c(Cl)nc(NC3CCC3)c2=O)cc1 (stereo not drawn) tested on TF-VIIa (Homo sapiens, UniProt P08709); recorded IC50 or % Inhibition TF-VIIa (30 µM) was 43

Tested on TF-VIIa (Homo sapiens, UniProt P08709), the item N=C(N)c1ccc(CNC(=O)C(Cc2ccccc2)n2c(-c3ccccc3)c(Cl)nc(NCCc3ccccc3)c2=O)cc1 (stereo not drawn) showed IC50 or % Inhibition TF-VIIa (30 µM) equal to 30

Where do the numbers come from? From patent EP1586565A1.
